# Test system: Rattus norvegicus
# Experimental Details: In vivo threshold intravenous dose required to cause reversal of clonidine on hypogastric nerves in pithed rat
# Format: functional, Hypogastric nerve
I'd be grateful if you could share measured Dose for these entries.

Consider N=C(N)Nc1nncc2ccccc12 . Its measured Dose is 3 mg/kg

Consider Cc1ccc(N(CC2=NCCN2)c2cccc(O)c2)cc1 . Its measured Dose is 0.03 mg/kg

Consider c1ccc2c(NC3=NCCN3)nncc2c1 . Its measured Dose is 3 mg/kg

Consider CCCC/N=C(\N)Nc1nncc2ccccc12 . Its measured Dose is 1 mg/kg

Consider CCCC/N=C(/N)Nc1nc2ccccc2nc1C . Its measured Dose is >1 mg/kg

These measurements were taken from ChEMBL document CHEMBL1122092.
